# test-target: T1, mf TFRC ecto-mmh (REGN2054), monomeric monkey (cyno) Tfrc ectodomain with C-terminal myc-myc-hexahistidine tag (monkey (cyno), Macaca fascicularis, UniProt H9EXL1 89-760)
# T1 construct: range 89-760; also called mfTfR-mmh; mfTFR-mmh
# T1 sequence (chain, as listed by the source): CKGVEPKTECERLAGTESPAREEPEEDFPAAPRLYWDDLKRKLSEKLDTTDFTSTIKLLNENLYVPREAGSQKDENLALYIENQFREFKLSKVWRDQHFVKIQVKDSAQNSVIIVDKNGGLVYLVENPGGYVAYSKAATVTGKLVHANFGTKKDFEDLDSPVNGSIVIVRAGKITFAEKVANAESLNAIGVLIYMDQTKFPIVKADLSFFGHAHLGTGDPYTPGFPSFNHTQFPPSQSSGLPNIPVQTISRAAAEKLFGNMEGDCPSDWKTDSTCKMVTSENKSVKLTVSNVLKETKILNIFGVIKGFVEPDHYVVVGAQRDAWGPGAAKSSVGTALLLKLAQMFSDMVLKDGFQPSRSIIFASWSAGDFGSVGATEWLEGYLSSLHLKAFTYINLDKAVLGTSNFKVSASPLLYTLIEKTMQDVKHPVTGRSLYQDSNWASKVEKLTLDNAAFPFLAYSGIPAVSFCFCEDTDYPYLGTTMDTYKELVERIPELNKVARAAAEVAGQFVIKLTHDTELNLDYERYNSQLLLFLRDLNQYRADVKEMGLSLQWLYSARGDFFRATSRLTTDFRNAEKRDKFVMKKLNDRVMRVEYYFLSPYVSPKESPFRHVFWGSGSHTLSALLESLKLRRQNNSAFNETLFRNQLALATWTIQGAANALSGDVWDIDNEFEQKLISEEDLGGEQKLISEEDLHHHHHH
# test-method-notes: SPR (Biacore), mAb captured on anti-human Fc, 100 nM mfTfR-mmh, 25 C
reported-property: kon (M⁻¹ s⁻¹)

INSERT INTO assay_data (binder, reported_property, measured) VALUES
  ('69340 (antibody, human IgG1, kappa, V domains shown, Tested as bivalent human IgG1 from CHO primary supernatant) VH: EVQLVESGGGLVQPGRSLRLSCAASGFTFDDKAMHWVRQVPGKGLEWISGISWNSGTIGYADSVKGRFIISRDNAKNSLYLQMNSLRAEDTALYYCAKDGDTSGWYWYGLDVWGQGTTVTVSS VL: EIVLTQSPATLSLSPGERATLSCRASQSVSSYLAWYQQKPGQAPRLLIHDVSNRATGIPARFSGSGSGTDFTLTISSLEPEDFVVYYCQQRSDWPITFGQGTRLEIKR', 'kon', 89200),
  ('12802B (antibody, human IgG1, kappa, V domains shown, Tested as bivalent human IgG1 from CHO primary supernatant) VH: QVQLVESGGGLVKPGGSLRLSCAASGFTFSDYFMSWIRQAPGKGLEWVSYISSTGSTINYADSVKGRFTISRDNVKNSLYLQMTSLRVEDTAVYYCTRDNWNYEYWGQGTLVTVSS VL: EIVMTQSPATLSVSPGERATLSCRASQSVSINLAWYQQKPGQAPRLLIFVASTRATGIPARFSGSGSGTEFTLTISSLQSEDFATYYCQQYDIWPYTFGQGTKLEIKR', 'kon', 70500),
  ('31874B (antibody, human IgG1, kappa, V domains shown, Tested as bivalent human IgG1 from CHO primary supernatant; also called H1H31874B; REGN17517) VH: EVQLVESGGGLVQPGGSLRLSCAASGFAFSSYAMTWVRQAPGKGLEWVSVISGTGGSTYYADSVKGRFTISRDNSKNTLYLQMNSLRAEDTAVYYCAKGGAARRMEYFQYWGQGTLVTVSS VL: DIQMTQSPSSLSASVGDRVTITCRASQGISNYLAWYQQKPGKVPNLLIYAASTLQSGVPSRFSGSGSGTDFTLTISSLQPEDVATYYCQKYNSAPLTFGGGTKVEIKR', 'kon', 691000),
  ('69348 (antibody, human IgG1, kappa, V domains shown, Tested as bivalent human IgG1 from CHO primary supernatant) VH: QVQLVESGGGVVQPGRSLRLSCAASGFTFTTYGMHWVRQAPGKGLEWVAVIWYDGSNKYYGDSVKGRFTISRDNSKNTLYLQMNSLRVDDTAVYYCTRTHGYTRSSDGFDYWGQGTLVTVSS VL: DIQMTQSPSSLSASVGDRVTITCRASQSIRNVLGWFQQKPGKAPQRLIYAASSLQSGVPSRFSGSGSGTEFTLTISSLQPEDFATYYCLQHNFYPLTFGGGTKVEIKR', 'kon', 96000),
  ('12795B (antibody, human IgG1, kappa, V domains shown, Tested as bivalent human IgG1 from CHO primary supernatant) VH: EVQLVESGGGLVQPGGSLRLSCATSGFTFTSYDMKWVRQAPGLGLEWVSAISGSGGNTYYADSVKGRFTISRDNSRNTLYLQMNSLRAEDTAVYYCTRSHDFGAFDYFDYWGQGTLVTVSS VL: DIQMTQSPSSLSASVGDRVTITCRASQGIRDHFGWYQQKPGKAPKRLIYAASSLHSGVPSRFSGSGSGTEFTLTISSLQPEDFATYYCLQYDTYPLTFGGGTKVEIKR', 'kon', 61000),
  ('12799B (antibody, human IgG1, kappa, V domains shown, Tested as bivalent human IgG1 from CHO primary supernatant; also called H1H12799B; REGN17508) VH: QITLKESGPTLVKPTQTLTLTCTFSGFSLSTSGVGVVWIRQPPGKALEWLALIYWNDHKRYSPSLGSRLTITKDTSKNQVVLTMTNMDPVDTATYYCAHYSGSYSYYYYGLDVWGQGTTVTVSS VL: DIQMTQSPSSVSASVGDRVTITCRASQGIASWLAWYQQKPGKAPELLIYAASSLQGGVPSRFSGSGSGTDFTLTISSLQPEDFAIYYCQQANYFPWTFGQGTKVEIKR', 'kon', 86400),
  ('69331 (antibody, human IgG1, kappa, V domains shown, Tested as bivalent human IgG1 from CHO primary supernatant) VH: QVQLVESGGGVVQPGRSLRLSCIASGFTFSVYGIHWVRQAPGKGLEWMAVISHDGNIKHYADSVKGRFTISRDNSKNTLYLQINSLRTEDTAVYYCAKDTWNSLDTFDIWGQGTMVTVSS VL: DIQLTQSPSSLSASVGDRVTITCWASQGISSYLAWYQQKPGKAPKLLIYAASTLQSGVPSRFSGSGSGTEFTLTISSLQPEDFATYYCQQLNSYPLTFGGGTKVEIKR', 'kon', 489000),
  ('69263 (antibody, human IgG1, kappa, V domains shown, Tested as bivalent human IgG1 from CHO primary supernatant) VH: EVQLVESGGGLVQPGRSLRLSCAVSGFTFDDYAMHWVRQAPGKGLEWVSGISWNSGTRGYADSVKGRFTISRDNAKNSLYLQMNSLRGEDTALYYCVKDITISPNYYGMDVWGQGTTVTVSS VL: DIQMTQSPSSLSASVGDRVTITCRASQDISHYSAWYQQKPGKLPNLLIYAASTLQSGVPSRFSGSGSGTDFSLTTSSLQPEDVATYYCQKYNSVPLTFGGGTKVEIKR', 'kon', 197000),
  ('12808B (antibody, human IgG1, kappa, V domains shown, Tested as bivalent human IgG1 from CHO primary supernatant) VH: QLQLQESGPGLVKPSETLSLTCTVSGESISSNTYYWGWIRQPPGKGLEWIGSIDYSGTTNYNPSLKSRVTISVDTSRNHFSLRLRSVTAADTAVYYCAREWGNYGYYYGMDVWGQGTTVTVSS VL: DIQMTQSPSSLSASVGDRVTINCRASQGIRNDLGWYQQKPGKAPKRLIYAASSLQSGVPLRFSGSGSGTEFTLTINNLQPEDFATYYCLSHNSYPWTFGQGTKVEIKR', 'kon', 78500),
  ('12801B (antibody, human IgG1, kappa, V domains shown, Tested as bivalent human IgG1 from CHO primary supernatant) VH: EVQLLESGGALVQPGGSLRLSCAASGFTFTSYAMHWVRQAPGKGLEWVSSIRGSGGGTYSADSVKGRFTISRDNSRDTLYLQMNSVRAEDTAVYYCARSHDYGAFDFFDYWGQGTLVTVSS VL: DIQMTQSPSSLSASVGDRVTITCRASQGIRTDLGWYQQKPGKAPKRLIYAASSLQSGVPSRFSGSGSGTEFTLTISSLRPEDFATFYCLQYNSYPLTFGGGTKVEIKR', 'kon', 64000),
  ('31863B (antibody, human IgG1, kappa, V domains shown, Tested as bivalent human IgG1 from CHO primary supernatant) VH: EVQLVESGGGLVQPGGSLRLSCAASGFTFNSYAMTWVRQAPGKGLEWVSFIGGSTGNTYYAGSVKGRFTISSDNSKKTLYLQMNSLRAEDTAVYYCAKGGAARRMEYFQHWGQGTLVTVSS VL: DIQMTQSPSSLSASIGDRVTITCRASQGISNYLAWYQQKPGKVPKLLIYAASTLQSGVPSRFSGSGSGTDFTLTISSLQPEDVATYYCQNHNSVPLTFGGGTKVEIKR', 'kon', 163000);

Hey, just so you know, these numbers are from patent US20250049896A1.
